All values here come from the RNAGym collection of RNA variant scans (doi:10.7554/elife.80360).

B1: Hairpin Ribozyme (parent)
chain: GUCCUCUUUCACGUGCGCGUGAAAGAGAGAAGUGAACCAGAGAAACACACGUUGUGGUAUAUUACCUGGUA

variants of: B1; assay: self-cleavage, relative activity (ratio to wild type); higher = more cleavage; co-transcriptional
Classify as follows. Reported self-cleavage greater than or equal to 0.3: true (1). Reported self-cleavage below: false (0).

Query: hey, is self-cleavage for this one >= 0.3? U8C A61U
Response: false (0)

Query: hey, is self-cleavage for this one >= 0.3? A31G A71C
Response: true (1)

Query: hey, is self-cleavage for this one >= 0.3? A36G G56C
Response: false (0)

Query: hey, is self-cleavage for this one >= 0.3? G15C U58C
Response: true (1)

Query: hey, is self-cleavage for this one >= 0.3? A31U G69C
Response: false (0)

Query: hey, is self-cleavage for this one >= 0.3? U52A U55A
Response: true (1)

Query: hey, is self-cleavage for this one >= 0.3? G21A C48A
Response: false (0)

Query: hey, is self-cleavage for this one >= 0.3? C4A G29A
Response: false (0)

Query: hey, is self-cleavage for this one >= 0.3? G1A U9A
Response: false (0)

Query: hey, is self-cleavage for this one >= 0.3? C48G A59U
Response: false (0)

Query: hey, is self-cleavage for this one >= 0.3? G34A G68C
Response: false (0)

Query: hey, is self-cleavage for this one >= 0.3? U14G U52A
Response: true (1)

Query: hey, is self-cleavage for this one >= 0.3? A24U A44U
Response: false (0)

Query: hey, is self-cleavage for this one >= 0.3? G13U A39U
Response: false (0)

Query: hey, is self-cleavage for this one >= 0.3? G1A G57C
Response: false (0)

Query: hey, is self-cleavage for this one >= 0.3? A23G G29C
Response: false (0)

Query: hey, is self-cleavage for this one >= 0.3? C6U C65U
Response: true (1)

Query: hey, is self-cleavage for this one >= 0.3? G13C C16U
Response: true (1)

Query: hey, is self-cleavage for this one >= 0.3? U20A C66A
Response: false (0)

Query: hey, is self-cleavage for this one >= 0.3? G15C C16A
Response: true (1)

Query: hey, is self-cleavage for this one >= 0.3? U7G U8C
Response: true (1)

Query: hey, is self-cleavage for this one >= 0.3? G34A C38A
Response: false (0)

Query: hey, is self-cleavage for this one >= 0.3? C18G A30G
Response: false (0)

Query: hey, is self-cleavage for this one >= 0.3? G19U
Response: true (1)

Query: hey, is self-cleavage for this one >= 0.3? C18A U52C
Response: true (1)

Query: hey, is self-cleavage for this one >= 0.3? A49C U53A
Response: false (0)

Query: hey, is self-cleavage for this one >= 0.3? A41G A61G
Response: false (0)

Query: hey, is self-cleavage for this one >= 0.3? U53C U58C
Response: true (1)

Query: hey, is self-cleavage for this one >= 0.3? U9A A64C
Response: false (0)

Query: hey, is self-cleavage for this one >= 0.3? A36G A59U
Response: false (0)

Query: hey, is self-cleavage for this one >= 0.3? A23U G34A
Response: true (1)
